system: CASOB (Cassia obtusifolia); assay: Postemergence herbicidal evaluation; type: in vivo, L.; details: postemergence, rate 0.0620 kg/ha
We label by threshold. Values of CASOB herbicidal rating strictly beneath 7 are Met. Values of 7 and up are Not met.

INSERT INTO results (compound, labelvalue) VALUES
  ('COCC1COC(c2nsc3ccc(-n4c(=O)cc(C(F)(F)F)n(C)c4=O)cc23)O1 (centres unmarked)', 'Met'),
  ('Cn1c(C(F)(F)F)cc(=O)n(-c2ccc3snc(C4OCC(CO)O4)c3c2)c1=O (centres unmarked)', 'Met'),
  ('COC1(c2nsc3ccc(-n4c(=O)cc(C(F)(F)F)n(C)c4=O)cc23)N=C(N(C)C)NC1=O (centres unmarked)', 'Not met'),
  ('C=C1COC(c2nsc3ccc(-n4c(=O)cc(C(F)(F)F)n(C)c4=O)cc23)OC1', 'Not met');

###

tested on: GALAP (Galium aparine); experiment: Preemergence herbicidal evaluation; assay type: in vivo; settings: Rate 0.2500 kg/ha; rated 4-5 weeks after treatment
Entries and their Preemergence herbicidal rating GALAP
recordedEndpoint: Preemergence herbicidal rating GALAP

INSERT INTO measurements (compound, value) VALUES
  ('Cn1c(C(F)(F)F)cc(=O)n(-c2ccc3snc(C4OCC(CCl)O4)c3c2)c1=O (stereo not shown)', 9.0),
  ('Cc1sccc1-c1nsc2ccc(-n3c(=O)cc(C(F)(F)F)n(C)c3=O)cc12', 9.0),
  ('Cc1cnn(-c2nsc3ccc(-n4c(=O)cc(C(F)(F)F)n(C)c4=O)cc23)c1', 4.0),
  ('Cn1c(C(F)(F)F)cc(=O)n(-c2ccc3snc(C4OCC(CO)O4)c3c2)c1=O (stereo not shown)', 9.0),
  ('Cc1cc(C)nc(-c2nsc3ccc(-n4c(=O)cc(C(F)(F)F)n(C)c4=O)cc23)n1', 8.0),
  ('CC1=CC(C)(C)OC(c2nsc3ccc(-n4c(=O)cc(C(F)(F)F)n(C)c4=O)cc23)C1 (stereo not shown)', 7.0),
  ('C=C1COC(c2nsc3ccc(-n4c(=O)cc(C(F)(F)F)n(C)c4=O)cc23)OC1', 9.0),
  ('Cn1c(C(F)(F)F)cc(=O)n(-c2ccc3snc(-c4ccco4)c3c2)c1=O', 9.0),
  ('Cc1cccnc1-c1nsc2cc(F)c(N3C(=O)C4=C(CCCC4)C3=O)cc12', 0.0),
  ('Cn1c(C(F)(F)F)cc(=O)n(-c2ccc3snc(C4OCC(c5ccccc5)O4)c3c2)c1=O (stereo not shown)', 7.0);

###

test system: ZEAMX (Corn, Field); assay: Postemergence herbicidal evaluation; format: in vivo, Zea mays, L.; conditions: postemergence, rate 0.0320 kg/ha
recordedEndpoint: ZEAMX herbicidal rating

INSERT INTO results (compound, studysystem, recordedendpoint, value) VALUES
  ('C[C@@H]1C[C@H](C)OC(c2nsc3cc(F)c(-n4c(=O)cc(C(F)(F)F)n(C)c4=O)cc23)O1 (stereo partly shown)', 'ZEAMX (Corn, Field)', 'ZEAMX herbicidal rating', 5.5),
  ('Cn1c(C(F)(F)F)cc(=O)n(-c2ccc3snc(-c4nccs4)c3c2)c1=O', 'ZEAMX (Corn, Field)', 'ZEAMX herbicidal rating', 4.5),
  ('Cn1c(C(F)(F)F)cc(=O)n(-c2ccc3snc(C4(C)OCCO4)c3c2)c1=O', 'ZEAMX (Corn, Field)', 'ZEAMX herbicidal rating', 4.0),
  ('Cn1c(C(F)(F)F)cc(=O)n(-c2ccc3snc(C4OCC(CO)O4)c3c2)c1=O (stereo not shown)', 'ZEAMX (Corn, Field)', 'ZEAMX herbicidal rating', 4.5);

###

test system: IPOHE (Ipomoea hederacea); assay: Preemergence herbicidal evaluation; type: in vivo, (L.) Jacq.; conditions: Rate 0.2500 kg/ha; rated 4-5 weeks after treatment
# cutoff 8 applies to Preemergence herbicidal rating IPOHE; >= gives Yes, < gives No

INSERT INTO results (compound, labelvalue) VALUES
  ('Cn1c(C(F)(F)F)cc(=O)n(-c2ccc3snc(-c4sccc4Cl)c3c2)c1=O', 'No'),
  ('Cn1c(C(F)(F)F)cc(=O)n(-c2ccc3snc(C4=NCCO4)c3c2)c1=O', 'No'),
  ('CC1COC(c2nsc3ccc(-n4c(=O)cc(C(F)(F)F)n(C)c4=O)cc23)O1 (stereo not drawn)', 'Yes'),
  ('CC1=CC(C)(C)OC(c2nsc3ccc(-n4c(=O)cc(C(F)(F)F)n(C)c4=O)cc23)C1 (stereo not drawn)', 'Yes'),
  ('Cn1c(C(F)(F)F)cc(=O)n(-c2ccc3snc(C4OCCO4)c3c2)c1=O', 'Yes'),
  ('Cc1cc(C)nc(-c2nsc3ccc(-n4c(=O)cc(C(F)(F)F)n(C)c4=O)cc23)n1', 'Yes'),
  ('Cn1c(C(F)(F)F)cc(=O)n(-c2ccc3snc(-c4sccc4CBr)c3c2)c1=O', 'No');

###

tested on: IPOHE (Ipomoea hederacea); assay: Preemergence herbicidal evaluation; type: in vivo, (L.) Jacq.; conditions: Rate 0.0620 kg/ha; preemergence; rated 4-5 weeks after treatment
recordedEndpoint: IPOHE preemergence herbicidal rating

INSERT INTO assay_data (molecule, recordedendpoint, value) VALUES
  ('Cn1c(C(F)(F)F)cc(=O)n(-c2ccc3snc(-c4ccccn4)c3c2)c1=O', 'IPOHE preemergence herbicidal rating', 6.3),
  ('Cc1ccn(-c2nsc3ccc(-n4c(=O)cc(C(F)(F)F)n(C)c4=O)cc23)n1', 'IPOHE preemergence herbicidal rating', 0.0),
  ('Cc1nnc(-c2nsc3ccc(-n4c(=O)cc(C(F)(F)F)n(C)c4=O)cc23)s1', 'IPOHE preemergence herbicidal rating', 0.0),
  ('Cn1c(C(F)(F)F)cc(=O)n(-c2ccc3snc(C(SCCO)SCCO)c3c2)c1=O', 'IPOHE preemergence herbicidal rating', 0.0),
  ('COC(=O)C(C)Oc1ccsc1-c1nsc2ccc(-n3c(=O)cc(C(F)(F)F)n(C)c3=O)cc12 (stereo not drawn)', 'IPOHE preemergence herbicidal rating', 0.0),
  ('Cn1c(C(F)(F)F)cc(=O)n(-c2ccc3snc(-c4ccsc4)c3c2)c1=O', 'IPOHE preemergence herbicidal rating', 8.0);

###

system: GALAP (Galium aparine); experiment: Preemergence herbicidal evaluation; format: in vivo; details: Rate 0.0620 kg/ha; preemergence; rated 4-5 weeks after treatment
recordedEndpoint: GALAP preemergence herbicidal rating

INSERT INTO measurements (compound, recordedendpoint, value) VALUES
  ('Cn1c(C(F)(F)F)cc(=O)n(-c2ccc3snc(C4OCCCO4)c3c2)c1=O', 'GALAP preemergence herbicidal rating', 9.0),
  ('Cn1c(C(F)(F)F)cc(=O)n(-c2ccc3snc(-c4ccsc4)c3c2)c1=O', 'GALAP preemergence herbicidal rating', 9.0),
  ('Cc1nnc(-c2nsc3ccc(-n4c(=O)cc(C(F)(F)F)n(C)c4=O)cc23)s1', 'GALAP preemergence herbicidal rating', 7.0),
  ('Cn1c(C(F)(F)F)cc(=O)n(-c2ccc3snc(-c4cccs4)c3c2)c1=O', 'GALAP preemergence herbicidal rating', 9.0),
  ('CN(C(=O)c1nsc2ccc(-n3c(=O)cc(C(F)(F)F)n(C)c3=O)cc12)c1ccc(Cl)cc1', 'GALAP preemergence herbicidal rating', 0.0),
  ('Cn1c(C(F)(F)F)cc(=O)n(-c2ccc3snc(-c4ccccn4)c3c2)c1=O', 'GALAP preemergence herbicidal rating', 1.5),
  ('Cc1ccn(-c2nsc3ccc(-n4c(=O)cc(C(F)(F)F)n(C)c4=O)cc23)n1', 'GALAP preemergence herbicidal rating', 5.0),
  ('COC(=O)C(C)Oc1ccsc1-c1nsc2ccc(-n3c(=O)cc(C(F)(F)F)n(C)c3=O)cc12 (stereo not drawn)', 'GALAP preemergence herbicidal rating', 0.0),
  ('Cn1c(C(F)(F)F)cc(=O)n(-c2ccc3snc(C(SCCO)SCCO)c3c2)c1=O', 'GALAP preemergence herbicidal rating', 3.0);

###

Entries and their AMBEL preemergence herbicidal rating
test system: AMBEL (Ambrosia artemisifolia); test: Preemergence herbicidal evaluation; assay type: in vivo, L.; details: Rate 0.0620 kg/ha; preemergence; rated 4-5 weeks after treatment
recordedEndpoint: AMBEL preemergence herbicidal rating

INSERT INTO results (compound, studysystem, value) VALUES
  ('COc1ccsc1-c1nsc2ccc(-n3c(=O)cc(C(F)(F)F)n(C)c3=O)cc12', 'AMBEL (Ambrosia artemisifolia)', 4.0),
  ('CCOC(=O)C1CS[C@H](c2nsc3ccc(-n4c(=O)cc(C(F)(F)F)n(C)c4=O)cc23)N1 (stereo partly drawn)', 'AMBEL (Ambrosia artemisifolia)', 7.0),
  ('Cn1c(C(F)(F)F)cc(=O)n(-c2ccc3snc(C4SCCN4C(=O)c4ccccc4)c3c2)c1=O (stereo not drawn)', 'AMBEL (Ambrosia artemisifolia)', 4.5),
  ('Cc1cccnc1-c1nsc2ccc(-n3c(=O)cc(C(F)(F)F)n(C)c3=O)cc12', 'AMBEL (Ambrosia artemisifolia)', 6.7),
  ('Cn1c(C(F)(F)F)cc(=O)n(-c2ccc3snc(C4OCCS4)c3c2)c1=O (stereo not drawn)', 'AMBEL (Ambrosia artemisifolia)', 9.0),
  ('Cn1c(C(F)(F)F)cc(=O)n(-c2ccc3snc(C4OCC(C)(C)CO4)c3c2)c1=O', 'AMBEL (Ambrosia artemisifolia)', 9.0);
